Molecular target: NEDD4L WW1 domain
Sequence (chain, as listed by the source): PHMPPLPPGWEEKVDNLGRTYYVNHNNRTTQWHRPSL
Assay: FP
Ends that are not written are not given here. Oregon Green 488 maleimide = Oregon Green 488 maleimide fluorescent label attached to the N-terminal cysteine
Please go through the items and note down their Kd.
One number for each entry, in µM.

C(Oregon Green 488 maleimide)MQNNEELPTYEEAKV [AMOT PPxY1 peptide (residues 100-114), Oregon Green 488-labelled] = 180

// next entry
Can you look up the measured Kd of C(Oregon Green 488 maleimide)MEHRGPPPEYPFKGM [AMOT PPxY2 peptide (residues 233-247), Oregon Green 488-labelled] for me?
49

Data credit: paper PMC8368996
